- System: mice
- Method: Activity of benzopyrans as adjuvants to halothane anesthesia (Carson-Domino method)
- Type: in vivo
- Set-up: key: +: statistically significant increase; -: statistically significant decrease; NE: no effect; (): large but non-statistically significant change
- Condition Info: 5 mg/kg i.v., pretreatment time 15 minutes
Counter-ions that a name gives are not always drawn.
Reported Property: Onset

Some entries whose results are on file:
                                   compound  measured
0  C#CCN1CCC2=C(C1)c1c(OC(=O)CCCN3CCCCC3)cc(C(C)C(C)CCCCC)cc1OC2(C)C.Cl (stereo not drawn)         -
1  C#CCN1CCC2=C(C1)c1c(OC(=O)CCCN3CCCCC3C)cc(C(C)C(C)CCCCC)cc1OC2(C)C (stereo not drawn) [SP-159, hydrochloride]         -
2  C#CCN1CCC2=C(C1)c1c(OC(=O)C(C)CCN3CCCCC3)cc(C(C)C(C)CCCCC)cc1OC2(C)C (stereo not drawn) [SP-178, dihydrochloride]         -
3  CCCCCc1cc(OC(=O)CCCN2CCOCC2)c2c(c1)OC(C)(C)C1CCC(C)=CC21 (stereo not drawn)         -
4  C#CCN1CCC2=C(C1)c1c(OC(=O)CCCN3CCOCC3)cc(C(C)C(C)CCCCC)cc1OC2(C)C.Cl (stereo not drawn)         -
5  C#CCN1CCC2=C(C1)c1c(OC(=O)C(C)CCN3CCCCC3C)cc(C(C)C(C)CCCCC)cc1OC2(C)C (stereo not drawn)         -
6  CCCCCC(C)C(C)c1cc(OC(=O)CCCN2CCCCC2)c2c(c1)OC(C)(C)C1=C2CCCS1 (stereo not drawn)         +
7  CCCCCC(C)C(C)c1cc(OC(=O)CCCN2CCCCC2)c2c(c1)OC(C)(C)C1=C2CCC1 (stereo not drawn)         +

Let us examine a further case.
Short answer for C#CCN1CCC2=C(C1)c1c(OC(=O)CCCN3CCCCC3)cc(C(C)CCCc3ccc(F)cc3)cc1OC2(C)C (stereo not drawn) : Onset was -

* * *

- Method: Determination of the Anesthetic ED50 and the LD50 of Pentothal
- Type: in vivo, female Swiss-Webster mice
- Condition Info: mouse, in vivo; intravenous, mice, observed one week; read-out: LD50 (95% C.L.)
Reported Property: LD50 at 168 h (mg/kg)
Numbers only, in mg/kg.

LD50 at 168 h measured on CCCC(C)C1(CC)C(=O)NC(=S)NC1=O (stereo not shown) [Pentothal, sodium thiopental] = 76

* * *

- Tested on: mice
- Method: Activity of benzopyrans as adjuvants to halothane anesthesia (Carson-Domino method)
- Type: in vivo
- Set-up: key: +: statistically significant increase; -: statistically significant decrease; NE: no effect; (): large but non-statistically significant change
- Condition Info: 5 mg/kg i.v., pretreatment time 15 minutes
Where a name gives a salt, the structure may show the parent alone.
Reported Property: Lethality

                                   compound  reported_property  measured
0  CCCCCc1cc(OC(=O)CCCN2CCOCC2)c2c(c1)OC(C)(C)C1CCC(C)=CC21 (stereo not drawn)          Lethality        NE
1  CCCCCC(C)C(C)c1cc(OC(=O)CCCN2CCCCC2)c2c(c1)OC(C)(C)C1=C2CCCS1 (stereo not drawn)          Lethality        NE
2  C#CCN1CCC2=C(C1)c1c(OC(=O)CCCN3CCCCC3)cc(C(C)CCCc3ccc(F)cc3)cc1OC2(C)C (stereo not drawn)          Lethality        NE
3  C#CCN1CCC2=C(C1)c1c(OC(=O)CCCN3CCCCC3C)cc(C(C)C(C)CCCCC)cc1OC2(C)C (stereo not drawn) [SP-159, hydrochloride]          Lethality        NE

Consider the following items and state reported Lethality for each.
1. C#CCN1CCC2=C(C1)c1c(OC(=O)C(C)CCN3CCCCC3)cc(C(C)C(C)CCCCC)cc1OC2(C)C (stereo not drawn) [SP-178, dihydrochloride]
2. CCCCCC(C)C(C)c1cc(OC(=O)CCCN2CCCCC2)c2c(c1)OC(C)(C)C1=C2CCC1 (stereo not drawn)
3. C#CCN1CCC2=C(C1)c1c(OC(=O)CCCN3CCOCC3)cc(C(C)C(C)CCCCC)cc1OC2(C)C.Cl (stereo not drawn)
4. C#CCN1CCC2=C(C1)c1c(OC(=O)CCCN3CCCCC3)cc(C(C)C(C)CCCCC)cc1OC2(C)C.Cl (stereo not drawn)
5. C#CCN1CCC2=C(C1)c1c(OC(=O)C(C)CCN3CCCCC3C)cc(C(C)C(C)CCCCC)cc1OC2(C)C (stereo not drawn)

Data returned:
["NE", "NE", "NE", "-", "-"]
